The next entries give measured MIC for Escherichia coli ATCC 25922.
State just the number; it will be interpreted in µM.

Recorded results for 2 compounds are shown here.
CC[C@H](C)[C@H](NC(=O)[C@H](CCCCN)NC(=O)[C@H](CC(=O)O)NC(=O)[C@H](Cc1ccccc1)NC(=O)[C@H](CC(C)C)NC(=O)[C@@H](N)CCCN=C(N)N)C(=O)N[C@@H](CCCN=C(N)N)C(=O)N[C@@H](CCC(N)=O)C(=O)N[C@H](C(=O)N[C@H](C(=O)N[C@@H](CCCN=C(N)N)C(=O)N[C@@H](CCCCN)C(=O)O)[C@@H](C)CC)C(C)C [RLFDKIRQVIRK] = 5
CC[C@H](C)[C@H](NC(=O)CN)C(=O)N[C@@H](Cc1ccccc1)C(=O)N[C@@H](CC(C)C)C(=O)N[C@@H](CCCCN)C(=O)N[C@H](C(=O)N[C@@H](CC(C)C)C(=O)NCC(=O)N[C@H](C(=O)NCC(=O)N[C@@H](CCCCN)C(=O)N[C@@H](CCCCN)C(=O)N[C@H](C(=O)N[C@@H](CC(C)C)C(=O)N[C@H]1CSSC[C@@H](C(=O)O)NC(=O)[C@H](CC(C)C)NC(=O)CNC(=O)[C@H](CO)NC(=O)[C@H](C(C)C)NC(=O)CNC1=O)C(C)C)C(C)C)C(C)C [GIFLKVLGVGKKVLCGVSGLC] = 5.17

Okay, now this compound:
Looking up CC(C)[C@H](NC(=O)[C@H](Cc1c[nH]c2ccccc12)NC(=O)[C@H](CCCCN)NC(=O)[C@@H](N)CCCN=C(N)N)C(=O)N[C@@H](Cc1c[nH]c2ccccc12)C(=O)N[C@@H](Cc1c[nH]c2ccccc12)C(=O)N[C@@H](CCCN=C(N)N)C(=O)N[C@@H](CC(N)=O)C(=O)N[C@@H](CCCN=C(N)N)C(N)=O [RKWVWWRNR] , I see its MIC listed as 90.1

This collection of values is drawn from DBAASP.
